B1: SMTNL2 (parent)
chain: AFTMAENLANCERLIEVEDMMVMG

- Variants of: B1
- test_protocol: protein stability index of a GFP-peptide fusion (GPS, HEK-293T) (PSI 1-6); higher = more stable;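 also: lentivirally expressed fusions sorted by FACS into six bins by GFP to DsRed ratio, PSI derived from sequencing read proportions per bin multiplied by bin number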
- study_conditions: c terminus: a fixed tail appended
Returns one of Yes or No; Yes when protein stability index is >= 3.

| variant_string | group_label |
| --- | --- |
| A5V | No |
| A9M | No |
| L14G | Yes |
| L8F | Yes |
| E16Y | No |
| E6Y | No |
| M23V | No |
| A5H | No |
| A9T | No |
